# MEASURED_ON: T1, 4H855-bH
# T1 chain: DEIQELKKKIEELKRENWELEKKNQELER
# METHOD_SUMMARY: two-hybrid library CCNG1;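 also: natural log of median RNA to DNA barcode read ratio; higher means stronger binding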
Each item that follows carries a reported interaction score.

Consider the reported interaction score for these binders:
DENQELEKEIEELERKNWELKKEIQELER [4H1081-bH] :: -0.163
DEIQELKKKIEELERENWELKKKIQELER [4H797-bH] :: -1.17
DEIQELKKKIEELKRENWELEKKNQELER [4H855-bH] :: -0.389

The binder identified as DKNQELKKKIEELKRENWELEKKIQELKR [4H3926-bH] registered its interaction score at -0.798

For reference, reported interaction score for DENQELKKKIEELERKIWELEKKNQELER [4H1831-bH] stands at -0.184

Form field interaction score, entry DKIQELKKEIEELKREIWELEKENQELER [4H2627-bH] : -0.425

Entry under test: DKIQELKKEIEELERENWELKKEIQELKR [4H2586-bH] . Its interaction score was 0.679
